Tested on: Hepatitis B virus
Assay: Antiviral activity against Hepatitis B virus in human HepAD38 cells assessed as inhibition of extracellular viral replication incubated for 2 days followed by 3 day incubation with fresh medium containing compound for 72 hrs by qRT-PCR analysis
Type: functional, organism-based
EC50 less than 4 µM is YES; EC50 greater than or equal to 4 µM is NO.

Solved cases below.
COc1ccc(Cc2nc(SC3CCCCCC3)[nH]c(=O)c2I)cc1OC
NO
COc1ccc(Cc2nc(SCc3cccc(Cl)c3)[nH]c(=O)c2I)cc1OC
NO
COc1ccc(Cc2nc(SCc3ccc([N+](=O)[O-])cc3)[nH]c(=O)c2I)cc1OC
YES
O=c1[nH]c(SCCOc2ccc([N+](=O)[O-])cc2)nc(Cn2nnc3ccccc32)c1I
YES
COc1ccc(Cc2nc(SCc3ccc(C#N)cc3)[nH]c(=O)c2I)cc1OC
NO

Regarding Nc1ccn([C@H]2CS[C@@H](CO)O2)c(=O)n1 , kindly confirm whether its EC50 is beneath 4 µM.
YES

How about COc1cc(CSc2nc(Cn3nnc4ccccc43)c(I)c(=O)[nH]2)cc(OC)c1 ?
NO
